Molecular target: human PAH with the R408W mutation (A375 R408W cells) (Homo sapiens, UniProt P00439, R408W)
Construct: expressed in transfected cells
Experiment: Cell Based Phenylalanine Flux Assay
Conditions: A375 R408W cells; 24 hrs with compound, then 20 μM sepiapterin and 800 μM 13C9,15N-Phenylalanine for 4 hours; 13C-Tyrosine by LC-MS; average where tested multiple times
Entries annotated with measured AC50

[
  {
    "compound": "O=C(c1ocnc1C(F)F)N1CCc2[nH]cnc2[C@H]1c1nc2cccc(OC(F)(F)F)c2o1 [Example 532]",
    "AC50": "≤ 500 nM"
  },
  {
    "compound": "Cc1nc([C@H](C)O)oc1C(=O)N1CCc2[nH]cnc2[C@@H]1c1nc2cccc(F)c2o1 [Example 248]",
    "AC50": "1000 to 5000 nM"
  },
  {
    "compound": "COc1ccc(-c2nc(C(F)F)c(C(=O)N3CCc4[nH]cnc4[C@H]3c3nc4cc(F)ccc4o3)o2)nc1 [Example 445]",
    "AC50": "≤ 500 nM"
  },
  {
    "compound": "Cn1ccc(-c2nc(C(F)F)c(C(=O)N3CCc4[nH]cnc4[C@H]3c3nc4cc(F)ccc4o3)o2)n1 [Example 411]",
    "AC50": "≤ 500 nM"
  },
  {
    "compound": "O=C(c1ocnc1C(F)F)N1CCc2[nH]cnc2[C@@H]1c1nc2cc(F)c(F)cc2o1 [Example 296]",
    "AC50": "1000 to 5000 nM"
  },
  {
    "compound": "Cc1nc(C(C)(C)C#N)oc1C(=O)N1CCc2[nH]cnc2[C@@H]1c1nc2cc(F)ccc2o1 [Example 186]",
    "AC50": "1000 to 5000 nM"
  },
  {
    "compound": "O=C(c1ccnn1CC(F)F)N1CCc2[nH]cnc2[C@H]1c1nc2ccccc2o1 [Example 835]",
    "AC50": "≤ 500 nM"
  },
  {
    "compound": "COc1cccc2oc([C@H]3c4nc[nH]c4CCN3C(=O)c3nc(C(F)F)nn3C)nc12 [Example 602]",
    "AC50": "500 to 1000 nM"
  }
]

* * *

Target: human PAH with the R408W mutation (A375 R408W cells) (Homo sapiens, UniProt P00439, R408W)
Construct: expressed in transfected cells
Assay: Cell Based Phenylalanine Flux Assay
Conditions: A375 cells expressing R408W PAH; 24 hrs with compound, then 20 μM sepiapterin and 800 μM 13C9,15N-Phenylalanine for 4 hours; 13C-Tyrosine by LC-MS; average where tested multiple times

[
  {
    "compound": "O=C(c1cnn2cc(N3CCC(O)CC3)ccc12)N1CCc2[nH]cnc2C1c1nc2c(F)cc(F)cc2o1 (stereo not drawn)",
    "AC50": "≥ 5 µM"
  },
  {
    "compound": "O=C(c1nnc(-c2cn[nH]c2)o1)N1CCc2[nH]cnc2C1c1nc2c(F)cccc2o1 (stereo not drawn)",
    "AC50": "1 to 5 µM"
  },
  {
    "compound": "Cn1cc(-c2nnc(C(=O)N3CCc4[nH]cnc4C3c3nc4cc(C(F)(F)F)ccc4o3)o2)cn1 (stereo not drawn)",
    "AC50": "1 to 5 µM"
  },
  {
    "compound": "Cc1nc(C(=O)N2CCc3[nH]cnc3C2c2nc3c(F)ccc(F)c3o2)n(C)n1 (stereo not drawn)",
    "AC50": "1 to 5 µM"
  },
  {
    "compound": "CNCc1ccc2c(C(=O)N3CCc4[nH]cnc4C3c3nc4cc(F)ccc4o3)cnn2c1 (stereo not drawn)",
    "AC50": "≥ 5 µM"
  },
  {
    "compound": "O=C(c1cnco1)N1CCc2[nH]cnc2C1c1nc2c(F)cccc2o1 (stereo not drawn)",
    "AC50": "≥ 5 µM"
  },
  {
    "compound": "COCc1ccc2c(C(=O)N3CCc4[nH]cnc4C3c3nc4ccc(F)cc4o3)cnn2c1 (stereo not drawn)",
    "AC50": "≥ 5 µM"
  },
  {
    "compound": "Cn1ccc(-c2nnc(C(=O)N3CCc4[nH]cnc4C3c3nc4cc(C(F)(F)F)ccc4o3)o2)n1 (stereo not drawn)",
    "AC50": "1 to 5 µM"
  },
  {
    "compound": "Cc1cccc2nc([C@H]3c4nc[nH]c4CCN3C(=O)c3cnc(C(C)(C)O)o3)oc12 (single isomer, unassigned)",
    "AC50": "≥ 5 µM"
  },
  {
    "compound": "Cn1cc(-c2ncc(C(=O)N3CCc4[nH]cnc4C3c3nc4cc(F)ccc4o3)o2)cn1 (stereo not drawn)",
    "AC50": "≥ 5 µM"
  },
  {
    "compound": "Cc1cccc2nc([C@H]3c4nc[nH]c4CCN3C(=O)c3cnn4cc(N5CCC(O)CC5)ccc34)oc12 (single isomer, unassigned)",
    "AC50": "≥ 5 µM"
  },
  {
    "compound": "O=C(c1cnn2cc(N3CCN(CC(F)(F)F)CC3)ccc12)N1CCc2[nH]cnc2C1c1nc2cc(F)ccc2o1 (stereo not drawn)",
    "AC50": "1 to 5 µM"
  },
  {
    "compound": "Cc1nc(C(C)O)oc1C(=O)N1CCc2[nH]cnc2C1c1nc2ccc(F)cc2o1 (stereo not drawn)",
    "AC50": "≥ 5 µM"
  },
  {
    "compound": "O=C(C1CC1)N1CCc2[nH]cnc2C1c1nc2cc(F)ccc2o1 (stereo not drawn)",
    "AC50": "1 to 5 µM"
  },
  {
    "compound": "Cn1ncnc1C(=O)N1CCc2[nH]cnc2C1c1nc2ccc(F)cc2o1 (stereo not drawn)",
    "AC50": "≥ 5 µM"
  },
  {
    "compound": "COC(=O)Nc1ccc2c(C(=O)N3CCc4[nH]cnc4C3c3nc4cc(F)ccc4o3)cnn2c1 (stereo not drawn)",
    "AC50": "1 to 5 µM"
  },
  {
    "compound": "Cn1nc(C(F)F)cc1C(=O)N1CCc2[nH]cnc2C1c1nc2cc(F)ccc2o1 (stereo not drawn)",
    "AC50": "1 to 5 µM"
  },
  {
    "compound": "O=C1CN(Cc2ccc3c(C(=O)N4CCc5[nH]cnc5C4c4nc5cc(F)ccc5o4)cnn3c2)CCN1 (stereo not drawn)",
    "AC50": "≥ 5 µM"
  }
]

* * *

Target: human PAH with the R408W mutation (A375 R408W cells) (Homo sapiens, UniProt P00439, R408W)
Construct: expressed in transfected cells
Sequence (P00439 1-452 R408W): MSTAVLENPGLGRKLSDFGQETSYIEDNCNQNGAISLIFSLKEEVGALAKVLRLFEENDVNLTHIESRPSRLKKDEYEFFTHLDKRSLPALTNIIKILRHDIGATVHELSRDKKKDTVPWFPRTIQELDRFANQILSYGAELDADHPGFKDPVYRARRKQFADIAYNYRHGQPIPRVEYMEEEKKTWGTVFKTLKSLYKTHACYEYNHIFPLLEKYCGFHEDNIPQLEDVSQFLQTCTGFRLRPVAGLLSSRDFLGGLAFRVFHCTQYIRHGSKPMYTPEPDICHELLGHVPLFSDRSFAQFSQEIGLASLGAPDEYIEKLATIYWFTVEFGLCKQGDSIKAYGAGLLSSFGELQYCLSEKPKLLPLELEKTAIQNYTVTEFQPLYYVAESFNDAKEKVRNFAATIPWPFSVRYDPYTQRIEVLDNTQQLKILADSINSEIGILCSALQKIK
Assay: Cell Based Phenylalanine Flux Assay
Conditions: A375 R408W cells; 24 hrs with compound, then 20 μM sepiapterin and 800 μM 13C9,15N-Phenylalanine for 4 hours; 13C-Tyrosine by LC-MS; average where tested multiple times
assay.metric: AC50

[
  {
    "compound": "CC(O)c1nc(Cl)c(C(=O)N2CCc3[nH]cnc3[C@H]2c2nc3cc(F)ccc3o2)o1 (single isomer, unassigned) [Example 235]",
    "result": "1000 to 5000 nM"
  },
  {
    "compound": "Cc1cccc2oc([C@H]3c4nc[nH]c4CCN3C(=O)c3cnn4cc(N5CCC(O)CC5)ccc34)nc12 [Example 702]",
    "result": "≥ 5000 nM"
  },
  {
    "compound": "O=C(c1cnn2cc(N3CCC(O)CC3)ccc12)N1CCc2[nH]cnc2[C@H]1c1nc2c(F)ccc(F)c2o1 [Example 895]",
    "result": "1000 to 5000 nM"
  },
  {
    "compound": "Cn1ccc(-c2nc(C(F)F)c(C(=O)N3CCc4[nH]cnc4[C@@H]3c3nc4ccccc4o3)o2)n1 [Example 762]",
    "result": "1000 to 5000 nM"
  },
  {
    "compound": "CC(C)(O)c1nc(C(F)F)c(C(=O)N2CCc3[nH]cnc3[C@H]2c2nc3ccc(F)cc3o2)o1 [Example 187]",
    "result": "≤ 500 nM"
  },
  {
    "compound": "COc1cc(F)c2oc([C@H]3c4nc[nH]c4CCN3C(=O)c3oc(C(C)(C)O)nc3C(F)F)nc2c1 [Example 644]",
    "result": "≤ 500 nM"
  },
  {
    "compound": "Cc1cc(C(=O)N2CCc3[nH]cnc3[C@@H]2c2nc3ccccc3o2)n(C)n1 [Example 780]",
    "result": "1000 to 5000 nM"
  },
  {
    "compound": "CC(O)c1nc(Br)c(C(=O)N2CCc3[nH]cnc3[C@@H]2c2nc3cc(F)ccc3o2)o1 (single isomer, unassigned) [Example 224]",
    "result": "1000 to 5000 nM"
  },
  {
    "compound": "CC(C)(O)c1nc(C(F)F)c(C(=O)N2CCc3[nH]cnc3[C@H]2c2nc3cc(F)cc(F)c3o2)o1 [Example 307]",
    "result": "≤ 500 nM"
  },
  {
    "compound": "O=C(c1ocnc1C(F)F)N1CCc2[nH]cnc2[C@H]1c1nc2ccc(F)cc2o1 [Example 163]",
    "result": "≤ 500 nM"
  },
  {
    "compound": "CC(C)(O)c1nc(C(F)F)c(C(=O)N2CCc3[nH]cnc3[C@H]2c2nc3c(C(F)(F)F)cccc3o2)o1 [Example 463]",
    "result": "≤ 500 nM"
  },
  {
    "compound": "O=C(c1oc(-c2ccc(F)cn2)nc1C(F)F)N1CCc2[nH]cnc2[C@@H]1c1nc2cccc(F)c2o1 [Example 631]",
    "result": "≤ 500 nM"
  },
  {
    "compound": "Cc1ccc2oc([C@H]3c4nc[nH]c4CCN3C(=O)c3ocnc3C(F)(F)F)nc2c1 [Example 64]",
    "result": "≤ 500 nM"
  },
  {
    "compound": "Cc1ccc2nc([C@H]3c4nc[nH]c4CCN3C(=O)c3ccnn3C(F)F)oc2c1 [Example 318]",
    "result": "500 to 1000 nM"
  },
  {
    "compound": "O=C(c1oc(-c2cnccn2)nc1C(F)F)N1CCc2[nH]cnc2[C@@H]1c1nc2cc(F)ccc2o1 [Example 528]",
    "result": "1000 to 5000 nM"
  }
]
